Sourced from PubChem BioAssay (NCI)

TGI listing for selected compounds.
System: M14 melanoma
Experiment: NCI tumour cell line growth inhibition, 48 h

Solved cases (2 shown):
- SUBSTANCE SMILES: "CCO/C=N\\C1=C(C#N)SC2=N/C(=C\\c3ccco3)C(=O)N21"
  TGI: "> 100 µM"
- SUBSTANCE SMILES: "CC(=O)OC1=C(c2ccccc2)S(=O)(=O)c2ccccc21"
  TGI: "> 100 µM"

In the following, a different compound is considered.
**Query** I'd like to know its TGI. The compound in question is CCCCCCCCCCCCNC(=O)N[C@H](C(=O)N[C@H]1/C=C/OCCNC(=O)/C=C/[C@H](C(C)C)NC1=O)C(C)C
**Result** > 70.3 µM

----------
Recorded TGI for the following compounds
Test system: SR leukemia
Experiment: NCI tumour cell line growth inhibition, 48 h

Some compounds with recorded TGI:
- COMPOUND: "CC[C@@]12CC(C(=O)OC)=C3Nc4ccccc4[C@@]34CCN(C[C@H]3O[C@H]31)[C@@H]24"
  TGI: "> 100 µM"
- COMPOUND: "O=C(c1ccccc1)N1CCc2c([nH]c3ccccc23)C1"
  TGI: "> 100 µM"
- COMPOUND: "NS(=O)(=O)c1ccc(NNc2c3ccccc3nc3c(C(=O)Nc4ccc(S(N)(=O)=O)cc4)cccc23)cc1"
  TGI: "57.9 µM"
- COMPOUND: "COc1cc(CC2c3cc(OC)c(OC)cc3CCN2C)c(C(=O)O)cc1OC (centres undefined)"
  TGI: "> 100 µM"
- COMPOUND: "CCCCCCCCCCCCNC(=O)N[C@H](C(=O)N[C@H]1/C=C/OCCNC(=O)/C=C/[C@H](C(C)C)NC1=O)C(C)C"
  TGI: "20.9 µM"

**Query** Sample NC(Cc1c2ccccc2cc2ccccc12)C(=O)O (centres undefined) — what was its TGI?
**Result** > 100 µM

**Query** Returns the measured TGI for the input compound. Input: C[C@H]1CC(=O)C[C@@H]2CC[C@@H]3[C@H](CC[C@]4(C)C(OC(=O)c5cccc6c(=O)c7ccccc7[nH]c56)CC[C@@H]34)[C@]21C (some centres undefined)
**Result** 21.6 µM

**Query** Given the compound COCc1nc(C#N)c(N)o1 , what is its reported TGI?
**Result** > 10 µM

**Query** So what does the record say about TGI for Nc1nc(NCc2ccccc2)cc(NCc2ccccc2)n1 ?
**Result** > 100 µM

**Query** What does the data say about its TGI? Entry: C[N+](C)(C)CC(=O)N/N=C\c1c(O)ccc2ccccc12
**Result** > 100 µM

**Query** // lookup TGI for CSc1cnc2ccccc2c1Sc1cn(C)c2ccccc2c1=O
**Result** > 100 µM

**Query** Fill blank: measured TGI of the compound CC1(C)OC2OC(/C=C/[N+](=O)[O-])C3OC(C)(C)OC3C2O1 (centres undefined) is ____.
**Result** 33.6 µM

**Query** Recorded TGI for c1c[nH]c(CN2CCN(Cc3ncc[nH]3)CC2)n1 , please?
**Result** > 100 µM

**Query** Need TGI of O=C(NNC(=O)c1cc2ccccc2[nH]1)c1cc2ccccc2[nH]1 , thanks.
**Result** > 100 µM

----------
Tested on: NCI-H226 lung
Assay: NCI tumour cell line growth inhibition, 48 h
OBSERVATION TYPE: GI50

- SUBSTANCE SMILES: "CC1(C)CCC(c2ccc(Cl)cc2)=C(CN2CCN(c3ccc(C(=O)NS(=O)(=O)c4ccc(N[C@H](CCN5CCOCC5)CSc5ccccc5)c(S(=O)(=O)C(F)(F)F)c4)cc3)CC2)C1"
  TARGET OF ASSAY: "NCI-H226 lung"
  GI50: "1620 nM"
- SUBSTANCE SMILES: "CC/C(=C\\c1ccc(N(C)C)cc1)c1ccncc1"
  TARGET OF ASSAY: "NCI-H226 lung"
  GI50: "14100 nM"
- SUBSTANCE SMILES: "CC(=O)[O-].O=C([CH-]C(=O)c1ccccc1)c1ccccc1.O=C([CH-]C(=O)c1ccccc1)c1ccccc1.[Dy+3]"
  TARGET OF ASSAY: "NCI-H226 lung"
  GI50: "3790 nM"

Now for another entry.
**Query** Given the compound N#CCC1CCN(c2nc(Nc3ccc(N4CCC(O)CC4)cc3)c3c(=O)[nH]ncc3n2)CC1 , what is its reported GI50?
**Result** 639 nM

----------
Tested on: HS 578T breast
Test: NCI tumour cell line growth inhibition, 48 h
In this section we review reported GI50 values for a set of compounds.

- COMPOUND: "CC(C)OC(=O)OCOP(=O)(OCOC(=O)OC(C)C)C1CCCN(O)C1=O (stereo not given)"
  TARGET OF ASSAY: "HS 578T breast"
  GI50: "586 nM"
- COMPOUND: "CC(=O)Nc1ccc(S(=O)(=O)N2C(=O)CCC2C(=O)Nc2ccccc2)cc1 (stereo not given)"
  TARGET OF ASSAY: "HS 578T breast"
  GI50: "2710 nM"
- COMPOUND: "CCOc1ccc(-c2nc3ccc(-c4nc5ccc(N6CCN(C)CC6)cc5[nH]4)cc3[nH]2)cc1OCC"
  TARGET OF ASSAY: "HS 578T breast"
  GI50: "1740 nM"
- COMPOUND: "CC1(C)CC[C@]2(C(=O)O)CC[C@]3(C)C(=CC[C@@H]4[C@@]5(C)C/C(=C/c6cccnc6)[C@H](O)C(C)(C)[C@@H]5CC[C@]43C)[C@@H]2C1"
  TARGET OF ASSAY: "HS 578T breast"
  GI50: "21800 nM"

**Query** # GI50 lookup, item CC1(C)N=C(N)N=C(N)N1c1cccc(CC(=O)Nc2ccccc2)c1
**Result** 11500 nM

----------
Test system: RXF 393 renal
Assay: NCI tumour cell line growth inhibition, 48 h
We begin with a simple list: items and their reported TGI.
Numeric only. Scale: µM

Past entries and their recorded results:
- COMPOUND: "COc1ncc(-c2ccc3nc(N)n(-c4ccccc4C(F)(F)F)c(=O)c3c2)cc1S(=O)(=O)Nc1ccc(F)cc1F"
  TGI [µM]: 4.46
- COMPOUND: "CC(C)OC(=O)OCOP(=O)(OCOC(=O)OC(C)C)C1CCCN(O)C1=O (stereo not drawn)"
  TGI [µM]: 2.88
- COMPOUND: "Nc1nc(NCc2ccccc2)cc(NCc2ccccc2)n1"
  TGI [µM]: 26.6
- COMPOUND: "O=P(c1ccccc1)(c1ccccc1)C1CC=C2CCCCCC2C1 (stereo not drawn)"
  TGI [µM]: 72.6
- COMPOUND: "Cc1nn(-c2ccccc2)c2c1[C@@H](C)[C@H]1CC3(CC4(C)C[C@@H]3C1(C)c1c(C)nn(-c3ccccc3)c1N4C)N2C (stereo partly drawn)"
  TGI [µM]: 48.2
- COMPOUND: "COC(=O)C#CC1(O)C=CC(=O)C=C1"
  TGI [µM]: 3.76
- COMPOUND: "C=C(CN1CCc2ccccc2C1)c1ccc(C(=O)Nc2cccc(N)c2)cc1"
  TGI [µM]: 43.7
- COMPOUND: "C=C(C)[C@@H]1CC[C@]2(C(=O)OC)CC[C@]3(C)[C@H](CC[C@@H]4[C@@]5(C)CC/C(=N\\OCCC(=NCCC#N)NOCCC#N)C(C)(C)[C@@H]5CC[C@]43C)[C@@H]12"
  TGI [µM]: 16.6

Here's the next entry for you.
**Query** I'm curious: which TGI was measured for CC/C(=C\c1ccc(N(C)C)cc1)c1ccncc1 tested on RXF 393 renal?
**Result** 20.8

----------
Test system: HT29 colon
Assay: NCI tumour cell line growth inhibition, 48 h
Quick list: TGI per entry.

- MOLECULE: "O=c1[nH]c2ccccc2c(=O)c2cc3ccccc3cc12"
  TGI: "> 100 µM"
- MOLECULE: "COc1cc2c(cc1O)CCN[C@@]21CS[C@H]2c3c(OC(C)=O)c(C)c4c(c3C(COC1=O)N1C2C2NC(Cc3cc(C)c(OC)c(O)c32)[C@@H]1C#N)OCO4 (some centres not stated)"
  TGI: "0.16 µM"
- MOLECULE: "COC(=O)c1c(O)ccc2c1c1c(n2CCc2ccccc2)C(=O)c2ccccc2C1"
  TGI: "70.4 µM"
- MOLECULE: "CC(C)c1cc(C(C)C)c(S(=O)(=O)N/N=C2\\CC3CCC2(C)C3(C)C)c(C(C)C)c1 (configuration not stated)"
  TGI: "43.8 µM"
- MOLECULE: "CCCCCCCC(=O)N1C2CC3CCC2(CS1(=O)=O)C3(C)C (configuration not stated)"
  TGI: "> 10 µM"
- MOLECULE: "COc1nc2c(c(=O)[nH]1)N=C(c1ccc([N+](=O)[O-])cc1)CC(c1ccccc1)N2 (configuration not stated)"
  TGI: "> 100 µM"
- MOLECULE: "N#CCC1CCN(c2nc(Nc3ccc(N4CCC(O)CC4)cc3)c3c(=O)[nH]ncc3n2)CC1"
  TGI: "> 100 µM"
- MOLECULE: "O=c1cc(O)c1=O"
  TGI: "> 100 µM"
- MOLECULE: "CC(=O)OC(C(=O)NNC(=O)OC(C)(C)C)c1ccccc1 (configuration not stated)"
  TGI: "> 100 µM"
- MOLECULE: "O=C(N=Nc1c(O)[nH]c2c(Cl)cc(Cl)cc12)C(=O)Nc1cccc(C(F)(F)F)c1"
  TGI: "> 100 µM"

**Query** For HT29 colon, provide TGI of CC12CCC(C(=Nc3ccc([N+](=O)[O-])cc3)C1=O)C2(C)C (configuration not stated) please.
**Result** > 100 µM

**Query** Find the measured TGI: item CN(C)c1ccc(-c2cc(-c3cccc(NS(C)(=O)=O)c3)nc(N)c2C#N)cc1 , target or system HT29 colon.
**Result** 0.457 µM

**Query** Observed TGI on HT29 colon for COc1cc(OC)cc(Oc2nc3ccc(C(F)(F)F)cc3nc2-c2ccccc2)c1 , please.
**Result** > 100 µM
